# tested.system: Cytochrome P450 2C19 (Homo sapiens)
# protocol.notes: Cytochrome panel assay with activity outcomes
# experimental.parameters: recombinant CYP, pro-luciferin dealkylation, luminescence, p450-cyp2c19; series mostly up to 57.1 µM
In all, about 16,000 compounds went through this assay and about 5,800 (36%) were called active. Inconclusive results (about 23%) are left out. Calls follow the shape of the dose curve; as a rule, active = well fitted curve in the direction sought with a large enough effect; inconclusive = small, poorly fitted or top-dose-only effect, or effect the other way; inactive = no such curve, though single readings can be large or run the other way. The list shows a part of the results.
Outcome codes: active, inactive

CC(=O)OCC1=C(C(=O)O)N2C(=O)[C@@H](NC(=O)Cc3cccs3)[C@@H]2SC1 | inactive
CS(=O)(=O)N1CCC2(CC1)CN(Cc1cc(C(F)(F)F)cc(C(F)(F)F)c1)C2 | inactive
NC(=O)CCCC1=NS(=O)(=O)c2ccccc2N1 | inactive
CN(C)C(=O)CSC1c2ccccc2C(=O)N1c1ccccc1 (stereo not drawn) | inactive
Cc1ccc2c(c1)N(CC(=O)NCc1cccs1)C(=O)C(C)O2 (stereo not drawn) | active
CC(C)n1nnnc1SCC(=O)NCc1ccc2c(c1)OCO2 | active
CCC(=O)N(C)/C=C1\Sc2ccccc2C1=O | active
COCC(=O)Nc1c(I)c(C(=O)NC[C@@H](O)CO)c(I)c(C(=O)N(C)C[C@@H](O)CO)c1I | inactive
COc1ccc(CCNC(=O)CCN2C(=O)C(C)Oc3ccc(C)cc32)cc1OC (stereo not drawn) | active
CC(C)n1nnnc1SCC(=O)NCCc1ccccc1 | active
COc1ccc(-c2nn3cnnc3s2)cc1OC | active
Cc1cc2cccc(C)c2nc1SCC(=O)N(C)c1nc(-c2ccccc2)cs1 | inactive
Cc1ccc(C)c(NC(=O)Cn2nnc(C(=O)NCc3cccs3)c2N)c1 | inactive
CC(Sc1nc(NCc2ccccc2)nc(N(C)C)n1)C(=O)Nc1ccccc1 (stereo not drawn) | active
CCOC(=O)c1c(-c2ccccc2)nc2c(C)cccn12 | active
Nc1ccn([C@@H]2CC[C@H](CO)O2)c(=O)n1 | inactive
CC(C)(C)NC(=O)CSc1nnc(Cc2ccc3c(c2)OCO3)n1C1CCCCC1 | inactive
CSc1nsc(SCc2ccc(Cl)cc2)n1 | active
O=C(COc1cccc2ccccc12)NNC(=O)c1cccs1 | active
CC1=NS(=O)(=O)c2cc(Cl)ccc2N1 | inactive
CCC(=O)N(Cc1ccco1)c1nc(-c2ccccc2)cs1 | active
CC(C)n1nnnc1SCC(=O)c1ccc2c(c1)OCCO2 | active
O=C(c1sc2ccccc2c1Cl)N(Cc1ccccc1)C1CCS(=O)(=O)C1 (stereo not drawn) | active

---

# tested.system: Cytochrome P450 2C19 (Homo sapiens)
# protocol.notes: Cytochrome panel assay with activity outcomes; as to activity, negative = inhibition: % is scaled to controls: 0 for no effect and ±100 for the full control effect
# experimental.parameters: recombinant CYP, pro-luciferin dealkylation, luminescence, p450-cyp2c19; series mostly up to 57.1 µM
Out of some 16,000 compounds screened, about 5,800 (36%) were called active. About 23% were inconclusive and are not listed. Some of the results follow.
Below is a list of entries, each paired with its recorded activity, negative = inhibition value.
observation.type: activity, negative = inhibition

O=C(O)/C=C\C(=O)N1Cc2cc3ccccc3nc2C1 | 21.9% [at 11.4 µM] (inactive)
COC(=O)C/C=C\[C@@H](C)[C@@H](/C=N\OCC[C@H]1C=C[C@H](OC(C)=O)[C@@H](COC(C)=O)O1)NS(=O)(=O)c1ccc(C)cc1 | -2.17% [at 11.4 µM] (inactive)
CCOc1ccccc1Nc1ccc(N)cc1S(=O)(=O)O | -16.1% [at 11.4 µM] (inactive)
OC[C@@H]1O[C@@H](N2CCN([C@@H]3O[C@@H](CO)[C@@H](O)[C@H](O)[C@H]3O)CC2)[C@@H](O)[C@H](O)[C@H]1O | 29.2% [at 11.4 µM] (inactive)
CC[C@H]1CN(C)[C@H]2Cc3c([nH]c4ccccc34)C(=O)C[C@H]1[C@H]2C(=O)OC | 22.2% [at 11.4 µM] (inactive)
COc1cc(N=C(N)N=C(N)N)c2ncccc2c1 | 36.7% [at 11.4 µM] (inactive)
O=C(O)[C@@H]1CCCN1Cc1ccc2c(c1)OCO2 | 14.1% [at 11.4 µM] (inactive)
COc1ccc(COC(=O)N/N=C2/C[C@@H](O)[C@@H](O)[C@@H]3[C@@H]4C(=O)N(C(C)(C)C)C(=O)[C@H]4CC[C@H]23)cc1 | 9.85% [at 11.4 µM] (inactive)
CC(=O)OC[C@@H]1O[C@H](C/C=N\O[C@@H](C)CN2CCCc3nc(C)c(C)cc32)C=C[C@@H]1OC(C)=O | 12.3% [at 11.4 µM] (inactive)
c1ccc(C[n+]2cccc(-c3cc4ccccc4[nH]3)c2)cc1 | 22.1% [at 11.4 µM] (inactive)
C=CC[C@@H]1C=C[C@H](O/N=C\[C@@H](C)[C@H](OCc2ccccc2)C(C)C)[C@H](CO)O1 | -27.4% [at 11.4 µM] (inactive)
N[C@@H]1[C@@H]2[C@@H]3C[C@H]4N(CC[C@@]14C(=O)C(=O)O)CC3=CCO[C@@H]2CC(=O)O | -13.5% [at 11.4 µM] (inactive)
O=C(Nc1cccc2cccnc12)[C@@H]1[C@@H](C(=O)O)[C@H]2CC[C@@H]1O2 | 29.3% [at 11.4 µM] (inactive)
CC(=O)n1c(COS(C)(=O)=O)nc2ccccc21 | 6.98% [at 11.4 µM] (inactive)
O=C1[C@H]2[C@H]3[C@H](O)[C@H](O)C/C(=N/OC[C@@H](O)COCc4ccco4)[C@H]3CC[C@@H]2C(=O)N1Cc1ccc2c(c1)OCO2 | 4.07% [at 11.4 µM] (inactive)
Cc1noc(NC(=O)Nc2ccccc2F)c1C#N | -17.8% [at 11.4 µM] (inactive)
COc1cc(C)cc2c(-c3c(O)cc(O)c4c3C[C@H](C)N[C@@H]4C)cc(-c3cc(-c4c(O)cc(O)c5c4C[C@H](C)N[C@@H]5C)c4cc(C)cc(OC)c4c3O)c(O)c12 | -31.6% [at 11.4 µM] (inactive)
N=C(N)C(N=Nc1ccccc1)C(=N)N (stereo unspecified) | -2.71% [at 11.4 µM] (inactive)
O=C(O)[C@H](Cc1ccc(O)c([N+](=O)[O-])c1)N1C(=O)c2ccccc2C1=O | 26.2% [at 11.4 µM] (inactive)
N/C(CC/C(N)=N/O)=N\O | 20.3% [at 11.4 µM] (inactive)
CC1=C[N+](=O)c2ccccc2[N+]1=O | 5.82% [at 11.4 µM] (inactive)
COC(=O)C/C=C\[C@@H](C)[C@@H](/C=N\OC[C@@H](O)[C@H]1O[C@H]2OC(C)(C)O[C@H]2[C@@H]1O)NS(=O)(=O)c1ccc(C)cc1 | -25.2% [at 11.4 µM] (inactive)
c1ccc2sc(SCN(C3CCCCC3)C3CCCCC3)nc2c1 | -38.6% [at 11.4 µM] (inactive)
CO[C@@H]1COC(=O)CC=C[C@@H](C)[C@@H]2C=C[C@H](O)[C@@H](COC(=O)C/C=C\[C@H]1C)O2 | -32.3% [at 11.4 µM] (inactive)
CN1CCN(CC(=O)N2c3ccccc3Sc3cc4ccccc4cc32)CC1 | -1.84% [at 11.4 µM] (inactive)
COC(=O)C/C=C\[C@@H](C)[C@@H](/C=N\O[C@@H](C)CN1CCCCc2nc(C)c(C)cc21)NS(=O)(=O)c1ccc(C)cc1 | -9.76% [at 11.4 µM] (inactive)
CC(=O)OC[C@@H]1O[C@H](CCO/N=C\[C@@H](C)[C@H](OCc2ccccc2)C(C)C)C=C[C@@H]1OC(C)=O | -11.7% [at 11.4 µM] (inactive)
O=C(O)[C@@H]1[C@@H](C(=O)Nc2ccccc2)[C@@H]2C=C[C@@H]1O2 | -3.64% [at 11.4 µM] (inactive)
CC(C)=CCC/C(C)=C/CO/N=C1/C[C@@H](O)[C@@H](O)[C@@H]2[C@@H]3C(=O)N(Cc4ccc5c(c4)OCO5)C(=O)[C@H]3CC[C@@H]12 | 17.2% [at 11.4 µM] (inactive)
O=[N+]([O-])c1ccc2c(c1)Cc1cc(N=Cc3ccc4c(c3)OCO4)ccc1-2 | -19.5% [at 11.4 µM] (inactive)
Cc1cc(N=Cc2c(CO)cnc(C)c2O)c(N=Cc2c(CO)cnc(C)c2O)cc1C.[Zn] | -22.1% [at 11.4 µM] (inactive)
O=C(O)c1cc(C(=O)O)nc(C(=O)O)c1 | 3.49% [at 11.4 µM] (inactive)
CC(=O)OC[C@@H]1O[C@H](C/C=N\O[C@@H](C)CN2CCCCc3nc(C)c(C)cc32)C=C[C@@H]1OC(C)=O | 34.1% [at 11.4 µM] (inactive)
NS(=O)(=O)c1ccc(NC(=O)Nc2cccc3ccccc23)cc1 | 2.76% [at 11.4 µM] (inactive)
Clc1ccc(CSc2ncnc3c2ncn3[C@@H]2CCCCO2)cc1 | -40.6% [at 11.4 µM] (inactive)
CC(=O)OC[C@@H]1O[C@@H](O/N=C2/C[C@@H](O)[C@@H](O)[C@@H]3[C@@H]4C(=O)N(C5CCCCC5)C(=O)[C@H]4CC[C@@H]23)[C@H](OC(C)=O)[C@H](OC(C)=O)[C@@H]1OC(C)=O | 2.25% [at 11.4 µM] (inactive)
